Origin of values: ChEMBL document CHEMBL1155269

# System: Escherichia coli
# test_details: Antibacterial activity against Escherichia coli at 2 mg/ml after 24 hrs by agar diffusion assay
# Type: functional
# condition_set: read-out: DIZ
Decide using zone of inhibition at 2000 µg/mL: a value greater than or equal to 20 mm is Met, a smaller one is Not met.

Cc1cc(C)c2c(N/N=C(\C#N)C(=O)N3NC(=O)C4C5c6ccccc6C(c6ccccc65)C4C3=O)n[nH]c2n1 (centres undefined) = Met
CC1=Nc2c(s/c(=N\N)n2-c2ccccc2)C(=O)N2C(=O)C3C4c5ccccc5C(c5ccccc54)C3C(=O)N12 (centres undefined) = Not met
N#CC(C(=O)N1NC(=O)C2C3c4ccccc4C(c4ccccc43)C2C1=O)=C1SCCCS1 (centres undefined) = Not met
O=C1C2C3c4ccccc4C(c4ccccc43)C2C(=O)N2C(=O)c3sc(=S)n(-c4ccccc4)c3N=CN12 (centres undefined) = Not met
O=C1NN(C(=O)c2cc3ccccc3oc2=O)C(=O)C2C3c4ccccc4C(c4ccccc43)C12 (centres undefined) = Not met

Hi, just wondering whether O=C(N[C@H](CO)[C@H](O)c1ccc([N+](=O)[O-])cc1)C(Cl)Cl [CHLORAMPHENICOL] shows zone of inhibition at 2000 µg/mL of 20 mm or higher.
Met

Is reported zone of inhibition at 2000 µg/mL greater than or equal to 20 mm here: N#CC(Br)(Br)C(=O)N1NC(=O)C2C3c4ccccc4C(c4ccccc43)C2C1=O (centres undefined)
Met

Textbook exercise: given the entry CC1=Nc2c(sc(=S)n2-c2ccccc2)C(=O)N2C(=O)C3C4c5ccccc5C(c5ccccc54)C3C(=O)N12 (centres undefined) , state whether its zone of inhibition at 2000 µg/mL is greater than or equal to 20 mm.
Not met

Could you please find out whether N=c1oc2ccccc2cc1C(=O)N1NC(=O)C2C3c4ccccc4C(c4ccccc43)C2C1=O (centres undefined) has zone of inhibition at 2000 µg/mL that meets 20 mm or exceeds it?
Not met

Check if zone of inhibition at 2000 µg/mL >= 20 mm (inclusive). Item: CC1(C)S[C@@H]2[C@H](NC(=O)[C@H](N)c3ccccc3)C(=O)N2[C@H]1C(=O)O [AMPICILLIN]
Not met

API: above_or_equal(metric=zone of inhibition at 2000 µg/mL, cutoff=20 mm) for item Nc1c(C(=O)N2NC(=O)C3C4c5ccccc5C(c5ccccc54)C3C2=O)sc(=S)n1-c1ccccc1 (centres undefined)
Not met

Check if zone of inhibition at 2000 µg/mL >= 20 mm (inclusive). Item: CSC(=S)C(C#N)C(=O)N1NC(=O)C2C3c4ccccc4C(c4ccccc43)C2C1=O (centres undefined)
Met

Is the recorded value of zone of inhibition at 2000 µg/mL equal to or greater than 20 mm for this compound? CS/C(Nc1ccccc1)=C(/C#N)C(=O)N1NC(=O)C2C3c4ccccc4C(c4ccccc43)C2C1=O (centres undefined)
Met
